Reference source: the supplement of paper PMC12855868

scaled log2 fold change values by entry
B1: library; numbered along this chain (parent)
chain: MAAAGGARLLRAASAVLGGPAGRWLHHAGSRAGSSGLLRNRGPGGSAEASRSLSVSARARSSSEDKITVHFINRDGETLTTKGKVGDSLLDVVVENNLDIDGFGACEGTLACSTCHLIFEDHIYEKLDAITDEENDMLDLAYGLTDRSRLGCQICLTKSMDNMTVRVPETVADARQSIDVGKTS

# Variants of: B1
# assay_details: scaled log2 fold change in cell abundance, elesclomol vs control (0 = silent mean, 1 = nonsense mean) (scaled log2 ratio); higher = higher viability under elesclomol (loss of FDX1 cuproptosis function);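 note: variant abundance is its share of total variant reads in each endpoint sample, from next-generation sequencing of the integrated ORF PCR-amplified out of genomic DNA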
# experimental_setup: with HEK293T FDX1 KO; elesclomol 40 nM; glucose 10 mM; 11 days
Please respond with just the number, no unit label.

Worked cases, scaled log2 fold change given:
mutant_designation	scaled log2 fold change
S113Y	0.0184
L89P	0.172

stdin: So what does the record say about scaled log2 fold change for R39P ?
stdout: -0.296

stdin: So what does the record say about scaled log2 fold change for C106F ?
stdout: 1.44

stdin: So what does the record say about scaled log2 fold change for A2H ?
stdout: 0.132

stdin: So what does the record say about scaled log2 fold change for R51Q ?
stdout: -0.603

stdin: So what does the record say about scaled log2 fold change for D136K ?
stdout: 0.124

stdin: So what does the record say about scaled log2 fold change for E133C ?
stdout: -0.346

stdin: So what does the record say about scaled log2 fold change for F103V ?
stdout: -0.441

stdin: So what does the record say about scaled log2 fold change for C106L ?
stdout: 1.32

stdin: So what does the record say about scaled log2 fold change for T145R ?
stdout: -0.726
